# Target Of Assay: T1, recombinant purified human Nectin-4-Fc fusion protein (human, UniProt Q96NY8 32-349)
# T1 construct: Bought ('Aero Biosystems' as printed); not shown: Fc part of the bought fusion protein; captured by anti-human IgG Fc sensors
# T1 sequence: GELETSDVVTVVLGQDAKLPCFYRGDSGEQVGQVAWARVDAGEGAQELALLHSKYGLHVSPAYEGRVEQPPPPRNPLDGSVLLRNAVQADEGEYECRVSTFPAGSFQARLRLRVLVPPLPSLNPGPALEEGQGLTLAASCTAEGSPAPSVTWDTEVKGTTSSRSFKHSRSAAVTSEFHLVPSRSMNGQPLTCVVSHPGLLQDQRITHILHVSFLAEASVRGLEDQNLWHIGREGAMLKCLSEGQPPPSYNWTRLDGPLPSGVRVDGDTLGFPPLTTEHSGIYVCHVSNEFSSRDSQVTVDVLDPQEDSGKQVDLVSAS
# Assay Text: BLI (Octet), Nectin-4-Fc on anti-human Fc sensors, run 1
Value Type: kon
Please answer in the form of a number followed by its unit of measurement.

Please give measured kon of the following entry: LV1186xVδ2 (bispecific antibody, Orientation N-term-anti-Nectin-4 VHH-linker-anti-Vδ2 VHH (5C8); no Fc; also called Nectin-4xVδ2 bispecific VHH) EVQLVESGGGLVQAGGSLRLSCAASRSTFSLNIMGWYRQAPGKQREYVATITSGGSTNYADSVRGRFTISRDNAENTVYLQMDSLKPEDTAVYYCTAELVRRGPTTYWGRGTQVTVSSGGGGSEVQLVESGGGLVQAGGSLRLSCAASGRPFSNYAMGWFRQAPGKEREFVAAISWSGGSTSYADSVKGRFTISRDNAKNTVYLQMNSPKPEDTAIYYCAAQFSGADYGFGRLGIRGYEYDYWGQGTQVTVSS
731000 M⁻¹ s⁻¹

Please give measured kon of the following entry: LV1181xVδ2 (bispecific antibody, Orientation N-term-anti-Nectin-4 VHH-linker-anti-Vδ2 VHH (5C8); no Fc; also called Nectin-4xVδ2 bispecific VHH) EVQLVESGGGLVQAGGSLRLSCAASGSISSINLMGWHRQAPGKQRELVATITRGGSTNYADSVKGRFTISRDNGKNTVYLQMNSLKPEDTAAYYCVDVEPSGMGWRDYWGQGTQVTVSSGGGGSEVQLVESGGGLVQAGGSLRLSCAASGRPFSNYAMGWFRQAPGKEREFVAAISWSGGSTSYADSVKGRFTISRDNAKNTVYLQMNSPKPEDTAIYYCAAQFSGADYGFGRLGIRGYEYDYWGQGTQVTVSS
1.04e+06 M⁻¹ s⁻¹

Please give measured kon of the following entry: LV1185xVδ2 (bispecific antibody, Orientation N-term-anti-Nectin-4 VHH-linker-anti-Vδ2 VHH (5C8); no Fc; also called Nectin-4xVδ2 bispecific VHH) EVQLVESGGGLVQAGGSLRLSCAASRSTFSLNIMGWYRQAPGKQREYVATITTGGSTNYADSVRGRFTISRDNAEDTVYLQMNSLKPEDTAVYYCTAELVRRGPTTYWGRGTQVTVSSGGGGSEVQLVESGGGLVQAGGSLRLSCAASGRPFSNYAMGWFRQAPGKEREFVAAISWSGGSTSYADSVKGRFTISRDNAKNTVYLQMNSPKPEDTAIYYCAAQFSGADYGFGRLGIRGYEYDYWGQGTQVTVSS
642000 M⁻¹ s⁻¹
